Entries annotated with measured IC50
- TESTED SYSTEM: N-terminal GST-tagged, recombinant, human JAK2 (amino acids 831-1132) (Homo sapiens, UniProt O60674)
- Construct: human JAK2 (amino acids 831-1132, PLAZA database pAZB0359); GST (N)
- Sequence (O60674 831-1132): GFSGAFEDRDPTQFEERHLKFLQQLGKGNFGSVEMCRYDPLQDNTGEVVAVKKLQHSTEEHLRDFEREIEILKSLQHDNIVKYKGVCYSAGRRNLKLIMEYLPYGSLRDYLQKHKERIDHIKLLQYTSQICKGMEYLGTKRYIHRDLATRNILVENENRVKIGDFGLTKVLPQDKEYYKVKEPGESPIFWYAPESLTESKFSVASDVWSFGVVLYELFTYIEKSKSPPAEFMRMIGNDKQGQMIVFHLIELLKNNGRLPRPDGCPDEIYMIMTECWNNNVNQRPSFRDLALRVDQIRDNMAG
- ASSAY DETAILS: JAK2 mobility shift assay on Caliper LC3000 (Method 2)
- CONDITIONS USED: 0.3 nM JAK2 enzyme, 5 mM ATP, 1.5 μM SRCtide, 90 minutes room temperature
- Method: Janus kinase 2 (JAK2) activity was also determined by measuring the kinase's ability to phosphorylate a tyrosine residue within a peptide substrate using a mobility shift assay on a Caliper LC3000 reader (Caliper, Hopkinton, Mass.), which measures fluorescence of the phosphorylated and unphosphorylated substrate and calculates a ratiometric value to determine percent turnover. To measure JAK2 kinase activity, an in-house purified enzyme was used. […]

MOLECULE: COc1cnc(C(C)Nc2nc(Nc3cn(C)cn3)c3cc[nH]c3n2)nc1 (stereo not shown) [Example 27(b)]
IC50 (µM): 0.52
--
MOLECULE: CC(Nc1nc(Nc2cn(C)cn2)c2ccn(CCF)c2n1)c1ncc(F)cn1 (single isomer, unassigned) [Example 22(b)]
IC50 (µM): 0.007
--
MOLECULE: Cc1cc2c(Nc3cn(C)cn3)nc(N[C@@H](C)c3ncc(F)cn3)nc2[nH]1
IC50 (µM): 0.013
--
MOLECULE: COc1cnc(C(C)Nc2nc(Nc3cn(C)cn3)c3cc[nH]c3n2)nc1 (racemic) [Example 27]
IC50 (µM): 0.27
--
MOLECULE: CC(Nc1nc(Nc2cn(C)cn2)c2ccc(C(F)(F)F)nc2n1)c1ncc(F)cc1F (racemic)
IC50 (µM): 0.026
--
MOLECULE: CC(Nc1nc(Nc2cn(C)cn2)c2cc(F)cnc2n1)c1ncc(F)cc1F (single isomer, unassigned) [Example 31(a)]
IC50 (µM): 0.08
--
MOLECULE: CC(Nc1nc(Nc2cn(C)cn2)c2ccn(C3CC3)c2n1)c1ncc(F)cn1 (single isomer, unassigned)
IC50 (µM): 0.027

----------
- TESTED SYSTEM: C-terminal His6-tagged, recombinant, human JAK2, amino acids 808-end (Homo sapiens)
- Construct: His6 (C); purchased Upstate Biotechnology MA; host or cells: baculovirus in Sf21 cells
- ASSAY DETAILS: JAK2 kinase Alphascreen assay (Method 1)
- Format: biochemical
- CONDITIONS USED: Alphascreen, 150 pM JAK2 enzyme, 5 mM ATP, 80 nM Tyk2 peptide, 60 minutes room temperature; read-out: IC50 Assay (Method 1)
Entries annotated with measured IC50

COMPOUND: C[C@H](Nc1nc(Nc2cn(C)cn2)c2ccc(Cl)nc2n1)c1ncc(F)cn1 [Example 42]
TESTED SYSTEM: C-terminal His6-tagged, recombinant, human JAK2, amino acids 808-end (Homo sapiens)
IC50: < 3 nM
--
COMPOUND: CC(Nc1nc(Nc2cn(C)cn2)c2ccc(Cl)nc2n1)c1ncc(F)cc1F (racemic) [Example 44]
TESTED SYSTEM: C-terminal His6-tagged, recombinant, human JAK2, amino acids 808-end (Homo sapiens)
IC50: 3 nM
--
COMPOUND: CC(Nc1nc(Nc2cn(C)cn2)c2ccn(C)c2n1)c1ncc(F)cn1 (single isomer, unassigned) [Example 23(a)]
TESTED SYSTEM: C-terminal His6-tagged, recombinant, human JAK2, amino acids 808-end (Homo sapiens)
IC50: < 3 nM
--
COMPOUND: C[C@H](Nc1nc(Nc2cn(C)cn2)c2cccnc2n1)c1ncc(F)cn1 [Example 16]
TESTED SYSTEM: C-terminal His6-tagged, recombinant, human JAK2, amino acids 808-end (Homo sapiens)
IC50: < 3 nM

----------
- TESTED SYSTEM: C-terminal His6-tagged, recombinant, human JAK2, amino acids 808-end (Homo sapiens, UniProt O60674)
- Construct: His6 (C); purchased Upstate Biotechnology MA; host or cells: baculovirus in Sf21 cells
- Sequence (O60674 808-1132 limits assumed): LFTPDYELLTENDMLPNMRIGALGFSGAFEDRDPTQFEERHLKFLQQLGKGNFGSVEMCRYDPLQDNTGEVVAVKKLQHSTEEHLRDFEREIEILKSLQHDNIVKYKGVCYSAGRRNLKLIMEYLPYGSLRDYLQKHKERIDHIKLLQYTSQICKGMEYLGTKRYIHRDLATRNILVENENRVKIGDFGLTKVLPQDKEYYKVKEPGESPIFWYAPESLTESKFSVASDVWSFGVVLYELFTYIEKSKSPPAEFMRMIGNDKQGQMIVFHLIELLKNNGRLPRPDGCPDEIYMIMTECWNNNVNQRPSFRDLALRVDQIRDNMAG
- ASSAY DETAILS: JAK2 kinase Alphascreen assay (Method 1)
- Assay type: biochemical
- CONDITIONS USED: Alphascreen, 150 pM JAK2 enzyme, 5 mM ATP, 80 nM Tyk2 peptide, 60 minutes room temperature; read-out: IC50 Assay (Method 1)
Field 'label' (enum: Fulfilled / Not fulfilled). Set to Fulfilled when IC50 is strictly under 4 nM; else Not fulfilled.

COMPOUND: C[C@H](Nc1nc(Nc2cn(C)cn2)c2ccccc2n1)c1ncc(F)cn1 [Example 45]
ASSIGNED LABEL: Fulfilled
//
COMPOUND: C[C@H](Nc1nc(Nc2cn(C)cn2)c2cnn(CCO)c2n1)c1ncc(F)cn1 [Example 15]
ASSIGNED LABEL: Fulfilled
//
COMPOUND: CC(Nc1nc(Nc2cn(C)cn2)c2cccnc2n1)c1ncc(F)cc1F (single isomer, unassigned) [Example 12(b)]
ASSIGNED LABEL: Not fulfilled
//
COMPOUND: CC(Nc1nc2c(c(Nc3cn(C)cn3)n1)CNC2)c1ncc(F)cn1 (single isomer, unassigned) [Example 18(b)]
ASSIGNED LABEL: Not fulfilled
//
COMPOUND: CC(Nc1nc(Nc2cn(C)cn2)c2ccsc2n1)c1ncc(F)cn1 (single isomer, unassigned) [Example 1(a)]
ASSIGNED LABEL: Not fulfilled
//
COMPOUND: CC(Nc1nc(Nc2cn(C)cn2)c2ccccc2n1)c1ncc(F)cn1 (single isomer, unassigned) [Example 45(b)]
ASSIGNED LABEL: Fulfilled
//
COMPOUND: CC(Nc1nc(Nc2cn(C)cn2)c2cnn(C)c2n1)c1ncc(F)cn1 (single isomer, unassigned) [Example 11(a)]
ASSIGNED LABEL: Not fulfilled
//
COMPOUND: CC(Nc1nc(Nc2cn(C)cn2)c2ccncc2n1)c1ncc(F)cc1F (single isomer, unassigned) [Example 43(a)]
ASSIGNED LABEL: Fulfilled
//
COMPOUND: Cc1nc2c(Nc3cn(C)cn3)nc(N[C@@H](C)c3ncc(F)cn3)nc2s1 [Example 7]
ASSIGNED LABEL: Not fulfilled
//
COMPOUND: C[C@H](Nc1nc(Nc2cn(C)cn2)c2ccc(NC3CC3)nc2n1)c1ncc(F)cn1 [Example 36]
ASSIGNED LABEL: Fulfilled
//
COMPOUND: Cc1ccc(S(=O)(=O)n2ccc3c(Nc4cn(C)cn4)nc(N[C@@H](C)c4ncc(F)cn4)nc32)cc1 [Example 3]
ASSIGNED LABEL: Not fulfilled
//
COMPOUND: CC(Nc1nc(Nc2cn(C)cn2)c2nccnc2n1)c1ncc(F)cn1 (single isomer, unassigned) [Example 10(a)]
ASSIGNED LABEL: Not fulfilled
//
COMPOUND: CC(Nc1nc(Nc2cn(C)cn2)c2cccnc2n1)c1ncc(F)cc1F (single isomer, unassigned) [Example 12(a)]
ASSIGNED LABEL: Fulfilled
//
COMPOUND: CC(Nc1nc2c(c(Nc3cn(C)cn3)n1)CCC2)c1ncc(F)cn1 (single isomer, unassigned) [Example 8(b)]
ASSIGNED LABEL: Fulfilled

----------
- TESTED SYSTEM: N-terminal GST-tagged, recombinant, human JAK2 (amino acids 831-1132) (Homo sapiens, UniProt O60674)
- Construct: human JAK2 (amino acids 831-1132, PLAZA database pAZB0359); GST (N); host or cells: insect cells
- ASSAY DETAILS: JAK2 mobility shift assay on Caliper LC3000 (Method 2)
- Type: biochemical
- CONDITIONS USED: 0.3 nM JAK2 enzyme, 5 mM ATP, 1.5 μM SRCtide, 90 minutes room temperature
READOUT TYPE: IC50

COMPOUND: C[C@H](Nc1nc(Nc2cn(C)cn2)c2cc(C(F)(F)F)[nH]c2n1)c1ncc(F)cn1
RESULT: 13 nM
--
COMPOUND: CCn1ncc2c(Nc3cn(C)cn3)nc(NC(C)c3ncc(F)cn3)nc21 (single isomer, unassigned)
RESULT: 40 nM
--
COMPOUND: C[C@H](Nc1nc(Nc2cn(C)cn2)c2ccc(O)nc2n1)c1ncc(F)cn1
RESULT: 47 nM
--
COMPOUND: C[C@H](Nc1nc(Nc2cn(C)cn2)c2ccc(C(F)(F)F)nc2n1)c1ncc(F)cn1
RESULT: 35 nM

----------
- TESTED SYSTEM: C-terminal His6-tagged, recombinant, human JAK2, amino acids 808-end (Homo sapiens)
- Construct: His6 (C); purchased Upstate Biotechnology MA; host or cells: baculovirus in Sf21 cells
- ASSAY DETAILS: JAK2 kinase Alphascreen assay (Method 1)
- Type: biochemical
- CONDITIONS USED: Alphascreen, 150 pM JAK2 enzyme, 5 mM ATP, 80 nM Tyk2 peptide, 60 minutes room temperature; read-out: IC50 Assay (Method 1)
pIC50: −log10 of the molar value.

COMPOUND: CC(Nc1nc2c(c(Nc3cn(C)cn3)n1)CNCC2)c1ncc(F)cn1 (single isomer, unassigned) [17(b)]
TESTED SYSTEM: C-terminal His6-tagged, recombinant, human JAK2, amino acids 808-end (Homo sapiens)
OPERATOR: =
pIC50: 5.70
//
COMPOUND: C[C@H](Nc1nc2c(c(Nc3cn(C)cn3)n1)CCC2)c1ncc(F)cn1
TESTED SYSTEM: C-terminal His6-tagged, recombinant, human JAK2, amino acids 808-end (Homo sapiens)
OPERATOR: =
pIC50: 7.80
//
COMPOUND: COc1ccc2nc(N[C@@H](C)c3ncc(F)cn3)nc(Nc3cn(C)cn3)c2c1
TESTED SYSTEM: C-terminal His6-tagged, recombinant, human JAK2, amino acids 808-end (Homo sapiens)
OPERATOR: =
pIC50: 6.17
//
COMPOUND: CC(Nc1nc(Nc2cn(C)cn2)c2nccnc2n1)c1ncc(F)cn1 (single isomer, unassigned) [Example 10(b)]
TESTED SYSTEM: C-terminal His6-tagged, recombinant, human JAK2, amino acids 808-end (Homo sapiens)
OPERATOR: =
pIC50: 6.70
//
COMPOUND: Cc1nc2c(Nc3cn(C)cn3)nc(NC(C)c3ncc(F)cn3)nc2s1 (single isomer, unassigned) [Example 7(b)]
TESTED SYSTEM: C-terminal His6-tagged, recombinant, human JAK2, amino acids 808-end (Homo sapiens)
OPERATOR: =
pIC50: 4.67
//
COMPOUND: CC(Nc1nc(Nc2cn(C)cn2)c2cnn(C)c2n1)c1ncc(F)cn1 (single isomer, unassigned) [Example 11(b)]
TESTED SYSTEM: C-terminal His6-tagged, recombinant, human JAK2, amino acids 808-end (Homo sapiens)
OPERATOR: >
pIC50: 8.52
//
COMPOUND: C[C@H](Nc1ccc2c(Nc3cn(C)cn3)nc(N[C@@H](C)c3ncc(F)cn3)nc2n1)c1ncc(F)cn1
TESTED SYSTEM: C-terminal His6-tagged, recombinant, human JAK2, amino acids 808-end (Homo sapiens)
OPERATOR: =
pIC50: 8.52
